System: SNB-78 CNS
Assay: NCI tumour cell line growth inhibition, 48 h
outcomeMeasure: TGI

Known results for compounds:
C#CC1(O)CC(c2ccccc2)N(C)C(c2ccccc2)C1 (stereo not given)    > 100 µM
CCCCCCC(=O)CC(=O)C(=O)Nc1ccccc1C    > 100 µM
COC(=O)C(Cc1ccccc1)N=Cc1c(O)c(O)c(C(C)C)c2cc(C)c(-c3c(C)cc4c(C(C)C)c(O)c(O)c(C=NC(Cc5ccccc5)C(=O)OC)c4c3O)c(O)c12 (stereo not given)    29.2 µM

**Q:** Requested field: TGI. Item: C(=NCCN=Cc1cccc2ccccc12)c1cccc2ccccc12
**A:** > 100 µM

**Q:** Try CN(C)c1ccc(/C=c2\sc3nnc(Cc4ccccc4)n3c2=O)cc1 next.
**A:** > 100 µM

**Q:** Moving on to the next compound: Cc1c(C(=O)Nc2ccc(Cl)cc2)nc(N)nc1-c1cccc(Cl)c1
**A:** > 100 µM

**Q:** Moving on to the next compound: Cc1ccc(NC(=O)CC2C(=O)Nc3ccccc3S2(=O)=O)cc1C (stereo not given)
**A:** > 100 µM

**Q:** Now the same for CCOc1ccccc1NC(=O)C(=O)c1c(O)c2ccc(O)cc2oc1=O
**A:** > 100 µM

**Q:** What about COc1cc2c(cc1O)N=C[C@@H]1CCC(O)N1C2=O (mixture of isomers) ?
**A:** 46.3 µM

**Q:** Entry C/C(=N\NS(=O)(=O)c1ccccc1)c1ccc[n+]([O-])n1 please
**A:** > 100 µM

---

System: SF-295 CNS
Experiment: NCI tumour cell line growth inhibition, 48 h
outcomeMeasure: TGI

// solved cases for TGI follow
COc1c(OC2OC(CO)C(O)C(O)C2O)cc2c(c1OC)-c1ccc(OC)c(=O)cc1[C@@H](NC(C)=O)CC2 (some centres undefined)    > 100 µM
CC(C)[C@H]1NC(=O)[C@H]2N=C(O[C@@H]2C)[C@@H]2CCCN2C(=O)[C@H](Cc2ccccc2)NC(=O)[C@@H]2COC(=N2)[C@@H](Cc2ccccc2)NC(=O)[C@@H]2COC1=N2    > 100 µM
O=C1Cc2c([nH]c3cc(Br)ccc23)-c2ccccc2N1    61.3 µM
CC(=O)Nc1ccc2c3c(cc(O)c2c1)N(C(=O)CCCCCC(=O)Nc1ccc2c4c(cc(O)c2c1)N(C(=O)OC(C)(C)C)CC4CCl)CC3CCl (centres undefined)    > 45.9 µM
N#CC1([N+](=O)[O-])C=C1c1ccccc1 (centres undefined)    > 100 µM
CCCNC(=O)Nc1ccc2c(c1)Cc1cc(N(CCCl)CCCl)ccc1-2    44.2 µM
CCNC(CCCC(NCC)P(=O)(O)O)P(=O)(O)O (centres undefined)    > 100 µM
O=C1NC(=O)C2(CCc3ccc(N(CCCl)CCCl)cc32)N1 (centres undefined)    > 61.5 µM

**Q:** GET /values?readout=TGI&item= C=C1CC(CC(=O)C(C)CC2CC(=C)C(=O)O2)OC1=O (centres undefined)
**A:** > 100 µM

---

System: NCI/ADR-RES ovarian
Assay: NCI tumour cell line growth inhibition, 48 h
Items are presented alongside their recorded TGI.

**Q:** For the molecule COc1cc[nH]c1/C=C1\C(=O)Nc2ccc([N+](=O)[O-])c(N3CC[C@@H](O)C3)c21 , what TGI is on record?
**A:** 5.83 µM
